# key: entry, value: viability, T/C
System: 843126-344-R-J1-PDC complex spheroid viability
Assay: Anticancer human tumor 843126-344-R-J1-PDC patient-derived melanoma cell line growth inhibition [POLQ]
Settings: second compound 0.316 µM; first compound 3.16 µM; hits give low values
Write down the numeric answer in % and omit the unit.

compound: O=c1[nH]cc(F)c(=O)[nH]1 + Cc1cccc(N(C)C(=O)C2C(O)CCN2c2nc(C)cc(C(F)(F)F)c2C#N)c1
units-of-measure: %
viability, T/C: 110
//
compound: COc1cccc2c1C(=O)c1c(O)c3c(c(O)c1C2=O)CC(O)(C(=O)CO)CC3OC1CC(N)C(O)C(C)O1 (stereo unspecified) + Cc1cccc(N(C)C(=O)C2C(O)CCN2c2nc(C)cc(C(F)(F)F)c2C#N)c1
units-of-measure: %
viability, T/C: 3.96

// query Could you share what viability, T/C was measured for COc1cccc2c1C(=O)c1c(O)c3c(c(O)c1C2=O)CC(O)(C(=O)CO)CC3OC1CC(N)C(O)C(C)O1 (stereo unspecified) + COC1C(OC(N)=O)C(O)C(Oc2ccc3c(O)c(NC(=O)c4ccc(O)c(CC=C(C)C)c4)c(=O)oc3c2C)OC1(C)C , tested on 843126-344-R-J1-PDC complex spheroid viability?
// result 4.21

// query # iterate: CC1COCCN1c1cc(-c2ccnn2C)c2ccnc(-c3ccn[nH]3)c2n1 (stereo unspecified) + Nc1ccc(C#CCN(C(=O)Cc2ncc(C(F)(F)F)cc2C(F)(F)F)c2ccc(F)cc2)nn1
// result 40.6

// query Thanks! And CC(C)n1c(=O)n(C)c2cnc3cc(F)c(-c4ccc(OCCCN5CCCCC5)nc4)cc3c21 + Cc1cccc(N(C)C(=O)C2C(O)CCN2c2nc(C)cc(C(F)(F)F)c2C#N)c1 ?
// result 87.2

// query Now try COc1ccc([C@@H](O)c2cc(-c3ncnc4cc(N5CCOCC5)ccc34)c(F)cc2Cl)nn1 + Nc1ccc(C#CCN(C(=O)Cc2ncc(C(F)(F)F)cc2C(F)(F)F)c2ccc(F)cc2)nn1 .
// result 79.5

// query For COc1cc(C2c3cc4c(cc3C(OC3OC5COC(C)OC5C(O)C3O)C3COC(=O)C23)OCO4)cc(OC)c1O (stereo unspecified) + Nc1ccc(C#CCN(C(=O)Cc2ncc(C(F)(F)F)cc2C(F)(F)F)c2ccc(F)cc2)nn1 then?
// result 70.1

====

Test system: 843126-344-R-J1-PDC complex spheroid viability
Assay: Anticancer human tumor 843126-344-R-J1-PDC cell line growth inhibition [POLQ];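 further: spheroids exposed to drugs for seven days before readout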
Settings: second compound 10 µM; first compound 0.001 µM; hits give low values
Attribute: viability, T/C
Numeric answer only, unit % assumed.

molecule: CC[C@@]1(O)C(=O)OCc2c1cc1n(c2=O)Cc2cc3c(CN(C)C)c(O)ccc3nc2-1 + Nc1ccc(C#CCN(C(=O)Cc2ncc(C(F)(F)F)cc2C(F)(F)F)c2ccc(F)cc2)nn1
viability, T/C [%]: 87.3
//
molecule: Cn1ncnc1[C@H]1c2n[nH]c(=O)c3cc(F)cc(c23)N[C@@H]1c1ccc(F)cc1 + COC1C(OC(N)=O)C(O)C(Oc2ccc3c(O)c(NC(=O)c4ccc(O)c(CC=C(C)C)c4)c(=O)oc3c2C)OC1(C)C
viability, T/C [%]: 102

// query Param item = Cn1ncnc1[C@H]1c2n[nH]c(=O)c3cc(F)cc(c23)N[C@@H]1c1ccc(F)cc1 + Cc1cccc(N(C)C(=O)C2C(O)CCN2c2nc(C)cc(C(F)(F)F)c2C#N)c1 ; retrieve measured viability, T/C.
// result 87.8

Attribution: PubChem BioAssay AID1963837
